herbicidal effect SETVI values for the molecules below.
# System: Setaria viridis
# assay_info: Herbicidal effect post-emergence
# Format: in vivo
# recorded_conditions: 320 g/ha, visual grading after ca. 3 weeks (Table 7)
measurement_name: herbicidal effect SETVI

molecule="O=C(Nc1nsc2c(=O)n(Cc3cc(F)c(F)cc3F)cc(F)c12)C(F)F [Example I-165]" result=90%
molecule="O=C(Nc1nsc2c(=O)n(CC3CCCCC3Cl)cc(Cl)c12)C(F)(F)C(F)(F)F (racemic) [Example I-161]" result=100%
molecule="CCC(=O)Nc1nsc2c(=O)n(CC3CCCCC3)cc(F)c12 [Example I-128]" result=100%
molecule="Nc1nsc2c(=O)n(Cc3cc(F)c(F)cc3F)cc(Cl)c12 [Example I-136]" result=90%
molecule="O=C(Nc1nsc2c(=O)n(CC3CCCCC3)cc(F)c12)C(F)(F)C(F)(F)F [Example I-127]" result=100%
molecule="Nc1nsc2c1CC(CO)N(CC1CCCCC1)C2=O (stereo not drawn) [Example I-007]" result=100%

---

# Test system: Viola tricolor
# assay_info: Herbicidal effect pre-emergence
# Type: in vivo
# recorded_conditions: 320 g/ha, visual grading after ca. 3 weeks vs untreated controls
measurement_name: herbicidal effect VIOTR (%)

molecule=C=Cc1cc2c(N)nsc2c(=O)n1CC1CCCCC1 display_unit=% measured_number=100
molecule="O=C(Nc1nsc2c(=O)n(CC3CCCCC3Cl)cc(Cl)c12)C(F)F (racemic) [Example I-159]" display_unit=% measured_number=100
molecule=CCC(=O)N(C(=O)CC)c1nsc2c(=O)n(CC3CCCCC3)cc(Br)c12 display_unit=% measured_number=100
molecule=CC(=O)OCc1cc2c(N)nsc2c(=O)n1CC1CCCCC1 display_unit=% measured_number=90
molecule=O=C(Nc1nsc2c(=O)n(CC3CCCCC3)cc(F)c12)C(F)(F)C(F)(F)F display_unit=% measured_number=100
molecule=C#Cc1cn(CC2CCCCC2)c(=O)c2snc(N)c12 display_unit=% measured_number=100
molecule="O=C(Nc1nsc2c(=O)n(CC3CCCCC3Cl)cc(Cl)c12)C(F)F (racemic) [Example I-160]" display_unit=% measured_number=100
molecule=O=C(Nc1nsc2c(=O)n(CC3CCCCC3)cc(Cl)c12)C(F)(F)F display_unit=% measured_number=100
molecule=Nc1nsc2c(=O)n(CC3CCCCC3)cc(Cl)c12 display_unit=% measured_number=100
molecule=CC(C)c1cc2c(N)nsc2c(=O)n1CC1CCCCC1 display_unit=% measured_number=90
molecule="CCC(=O)Nc1nsc2c1CC(CO)N(CC1CCCCC1)C2=O (stereo not shown)" display_unit=% measured_number=100
molecule="CC(C)(C)OC(=O)OC1CN(CC2CCCCC2)C(=O)c2snc(N)c21 (stereo not shown)" display_unit=% measured_number=100
molecule=O=C(Nc1nsc2c(=O)n(CC3CCCCC3)c(CO)cc12)C(F)(F)C(F)(F)F display_unit=% measured_number=100
molecule=CCCc1cc2c(NC(=O)C(F)(F)C(F)(F)F)nsc2c(=O)n1CC1CCCCC1 display_unit=% measured_number=80
molecule=CC(=O)Nc1nsc2c(=O)n(CC3CCCCC3)cc(Cl)c12 display_unit=% measured_number=100
molecule=Nc1nsc2c(=O)n(CC3CCCCC3)cc(C(=O)O)c12 display_unit=% measured_number=90
molecule=CCC(=O)OCc1cc2c(N)nsc2c(=O)n1CC1CCCCC1 display_unit=% measured_number=90
molecule=C/C(=N/OCC1CC1)c1cn(CC2CCCCC2)c(=O)c2snc(N)c12 display_unit=% measured_number=100
molecule=CCC(=O)Nc1nsc2c(=O)n(CC3CCCCC3)c(CO)cc12 display_unit=% measured_number=100
molecule=C=Cc1cn(CC2CCCCC2)c(=O)c2snc(N)c12 display_unit=% measured_number=100
molecule=CC(=O)c1cn(CC2CCCCC2)c(=O)c2c1C(N)=NS2(=O)=O display_unit=% measured_number=100
molecule="CCC(=O)OCC1Cc2c(N)nsc2C(=O)N1CC1CCCCC1 (stereo not shown)" display_unit=% measured_number=100
molecule="Nc1nsc2c1C(O)CN(CC1CCCCC1)C2=O (stereo not shown)" display_unit=% measured_number=100
molecule=O=C(Nc1nsc2c(=O)n(Cc3cc(F)c(F)cc3F)cc(F)c12)C(F)F display_unit=% measured_number=100
molecule=COC(C)(C)C#Cc1cn(CC2CCCCC2)c(=O)c2snc(N)c12 display_unit=% measured_number=100
